experimental-target: FTH ferritin (Homo sapiens)
Construct: made in house; host or cells: Escherichia coli BL21 (DE3), plasmid pET20-FTH
Sequence (P02794 whole entry): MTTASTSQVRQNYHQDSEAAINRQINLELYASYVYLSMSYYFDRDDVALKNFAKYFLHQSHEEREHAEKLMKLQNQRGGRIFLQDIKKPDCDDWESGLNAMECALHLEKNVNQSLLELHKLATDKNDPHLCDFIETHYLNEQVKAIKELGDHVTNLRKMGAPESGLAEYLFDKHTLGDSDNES
measurement-notes: one-step process incorporation of small molecule agents into FTH ferritin
Type: physicochemical
experimental-parameters: pH 8, 40° C., 60 min
For each entry below, report its Number of agent incorporated value.

Hello, I would appreciate it if you could give Number of agent incorporated for each entry below.
1. NC(=O)c1cccnc1 [Nicotinamide]
2. NC(N)=Nc1nc(CSCCC(N)=NS(N)(=O)=O)cs1 [Famotidine]
3. CC(C)(C)NCC(O)c1cc(O)cc(O)c1 (stereo not shown) [Terbutaline]
4. Cc1cc2nc3c(=O)[nH]c(=O)nc-3n(C[C@H](O)[C@H](O)[C@H](O)CO)c2cc1C [Riboflavin]
5. Cc1ncc(C[n+]2csc(CCO)c2C)c(N)n1 [Thiamine]
6. CN(C)C(=N)NC(=N)N [Metformin]
7. Nc1cc(N2CCCCC2)nc(N)[n+]1[O-] [Minoxidil]

Result string:
1: 13.9; 2: 8.4; 3: 21.0; 4: 6.4; 5: 13.7; 6: 2.9; 7: 12.0
